Where do these numbers come from? They come from patent US6432957B1.

system: U937 cells adhered to HUVEC stimulated by TNFα; experiment: Inhibitory effect on cell adhesion (U937 adhesion to TNFα-stimulated HUVEC); assay type: cell-based; details: Homo sapiens, 10 μM test agent, read-out: Inhibitory activity against cell adhesion, Percent inhibition (%)
Counter-ions that a name gives are not always drawn.
The following compounds are shown together with reported inhibition at 10 µM values.
Observation Type: inhibition at 10 µM

compound="COc1cc(-c2cc(CN3CCN(Cc4ccnc(-c5cc(OC)c(OC)c(OC)c5)c4)[C@@H](CC(C)C)C3=O)ccn2)cc(OC)c1OC [Example 8, hydrochloride]" observation_type="inhibition at 10 µM" result=79%
compound="COc1cc(-c2cc(CN3CCN(Cc4ccnc(-c5cc(OC)c(OC)c(OC)c5)c4)C(=O)C3)ccn2)cc(OC)c1OC [Example 4, hydrochloride]" observation_type="inhibition at 10 µM" result=79%
compound="COc1cc(-c2cc(CN3CCN(Cc4ccnc(-c5cc(OC)c(OC)c(OC)c5)c4)[C@@H](C(C)C)C3=O)ccn2)cc(OC)c1OC [Example 6, sesqui-hydrochloride]" observation_type="inhibition at 10 µM" result=77%
compound="COc1cc(-c2cc(CN3CCN(Cc4ccnc(-c5cc(OC)c(OC)c(OC)c5)c4)[C@H](C(C)C)C3=O)ccn2)cc(OC)c1OC [Example 7, tri-hydrochloride]" observation_type="inhibition at 10 µM" result=70%
compound="COc1cc(-c2cc(CN3CCN(Cc4ccnc(-c5cc(OC)c(OC)c(OC)c5)c4)C(CO)C3)ccn2)cc(OC)c1OC (stereo not drawn) [Example 3, dimaleate]" observation_type="inhibition at 10 µM" result=90%
compound="COc1cc(-c2cc(CN3CCN(Cc4ccnc(-c5cc(OC)c(OC)c(OC)c5)c4)[C@@H](C)C3=O)ccn2)cc(OC)c1OC [Example 5, hydrochloride]" observation_type="inhibition at 10 µM" result=85%

* * *

test system: U937 cells adhered to HUVEC stimulated by TNFα; experiment: Inhibitory effect on cell adhesion (U937 adhesion to TNFα-stimulated HUVEC); type: cell-based; details: Homo sapiens, 10 μM test agent, read-out: Inhibitory activity against cell adhesion, Percent inhibition (%)
Where a name gives a salt, the structure may show the parent alone.
Observation Type: inhibition at 10 µM (%)

compound="COc1cc(-c2cc(CN3C[C@@H](C)N(Cc4ccnc(-c5cc(OC)c(OC)c(OC)c5)c4)[C@@H](C)C3)ccn2)cc(OC)c1OC [Example 1]" numeric_value=78
compound="COc1cc(-c2cc(CN3C[C@H](C)N(Cc4ccnc(-c5cc(OC)c(OC)c(OC)c5)c4)C[C@H]3C)ccn2)cc(OC)c1OC [Example 2]" numeric_value=64
compound="COc1cc(-c2cc(CN3CCN(Cc4ccnc(-c5cc(OC)c(OC)c(OC)c5)c4)[C@@H](Cc4ccccc4)C3=O)ccn2)cc(OC)c1OC [Example 9, sesqui-hydrochloride]" numeric_value=86
compound="COc1cc(C(=O)OCCCN2CCCN(CCCOC(=O)c3cc(OC)c(OC)c(OC)c3)CC2)cc(OC)c1OC [Dilazep, dilazep, reference compound]" numeric_value=25
